# target.under.test: FLT-3 (Homo sapiens)
# Construct: 0.02% BSA and 3 nM FLT-3
# Sequence (P36888 27-993): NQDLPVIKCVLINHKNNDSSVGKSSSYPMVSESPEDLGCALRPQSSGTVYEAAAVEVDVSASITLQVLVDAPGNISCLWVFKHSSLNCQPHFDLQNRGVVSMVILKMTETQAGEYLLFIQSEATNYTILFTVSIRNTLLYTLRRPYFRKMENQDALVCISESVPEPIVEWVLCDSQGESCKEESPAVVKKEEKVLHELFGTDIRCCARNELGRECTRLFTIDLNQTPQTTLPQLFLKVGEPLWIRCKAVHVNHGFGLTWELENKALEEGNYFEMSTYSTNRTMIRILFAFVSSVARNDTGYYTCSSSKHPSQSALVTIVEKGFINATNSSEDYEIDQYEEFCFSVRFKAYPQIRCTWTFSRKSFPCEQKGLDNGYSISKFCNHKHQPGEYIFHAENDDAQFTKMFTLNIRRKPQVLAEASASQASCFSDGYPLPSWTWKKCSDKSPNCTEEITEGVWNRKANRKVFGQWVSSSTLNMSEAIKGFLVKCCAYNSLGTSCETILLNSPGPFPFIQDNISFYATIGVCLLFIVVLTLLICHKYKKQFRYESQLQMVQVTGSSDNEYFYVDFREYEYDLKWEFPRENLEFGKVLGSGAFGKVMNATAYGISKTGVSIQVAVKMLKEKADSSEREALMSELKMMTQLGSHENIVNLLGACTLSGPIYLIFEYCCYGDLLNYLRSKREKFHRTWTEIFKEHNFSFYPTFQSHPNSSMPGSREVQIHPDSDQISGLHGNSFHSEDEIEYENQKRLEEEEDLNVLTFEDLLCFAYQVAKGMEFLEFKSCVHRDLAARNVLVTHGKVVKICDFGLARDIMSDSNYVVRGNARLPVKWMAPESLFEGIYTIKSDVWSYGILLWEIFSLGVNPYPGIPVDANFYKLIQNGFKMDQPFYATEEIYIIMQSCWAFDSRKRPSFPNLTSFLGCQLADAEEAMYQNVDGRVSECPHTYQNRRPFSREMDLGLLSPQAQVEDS
# experiment.notes: Inhibition of FLT-3, radiometric filter-binding assay
# Format: biochemical
# condition.description: 90 μM ATP, pE4Y substrate; read-out: Ki values (FLT-3)
endpoint.label: Ki

Below are worked cases with known answers.
- chemical.string: "c1ccc(-n2cnc(Nc3ccnc(NCCN4CCOCC4)c3)n2)cc1"
  Ki: "30 to 200 nM"
- chemical.string: "CCN(CC)CCNc1cc(-n2cnc(Nc3ccccc3)n2)ccn1"
  Ki: "30 to 200 nM"
- chemical.string: "CN(Cc1ccccc1)c1cc(-n2cnc(Nc3ccccc3)n2)ccn1"
  Ki: "1 to 30 nM"

Asked: Which Ki is reported for this compound? CN(Cc1cccnc1)c1cc(-n2cnc(Nc3ccccc3)n2)ccn1
Given back: 1 to 30 nM
